Source listed as ChEMBL document CHEMBL3098020.

Biological target: Adenosine receptor A2a (Homo sapiens)
Test: Displacement of [3H]-ZM241385 from human adenosine A2A receptor expressed in CHO cell membranes at 10 uM by scintillation counting analysis relative to control
Quantity Name: inhibition (%)
One number for each entry, in %.

Solved cases below.
{"columns": ["Smiles Representation", "Test Value"],
 "data": [
  ["COc1ccc(-c2sc(N)c(C(=O)c3ccc(Cl)cc3)c2C)cc1", 1],
  ["CC(C)(C)Cc1c(-c2cccs2)sc(N)c1C(=O)c1ccc(Cl)cc1", 2],
  ["COc1ccc(-c2sc(N)c(C(=O)c3ccc(C)cc3)c2CC(C)(C)C)cc1", 3],
  ["Cc1ccc(-c2sc(N)c(C(=O)c3ccc(Cl)cc3)c2CC(C)(C)C)cc1", 1],
  ["CC(C)(C)Cc1c(-c2cccnc2)sc(N)c1C(=O)c1ccc(Cl)cc1", 1],
  ["COc1cccc(-c2sc(N)c(C(=O)c3ccc(Cl)cc3)c2CC(C)(C)C)c1", 2],
  ["Cc1sc(N)c(C(=O)c2ccc(Cl)cc2)c1-c1ccccc1", 1],
  ["Cc1ccccc1-c1sc(N)c(C(=O)c2ccc(Cl)cc2)c1CC(C)(C)C", 1]
]}

// for each compound in input: emit inhibition
1. COc1ccc(-c2sc(N)c(C(=O)c3ccc(Cl)c(Cl)c3)c2CC(C)(C)C)cc1
2. CC(C)(C)Cc1csc(N)c1C(=O)c1ccc(Cl)c(Cl)c1

1
1

----------
Would you kindly list fold change (FC) for each of these compounds?
Target: Adenosine receptor A1 (Homo sapiens) (UniProt P30542)
Assay: Potentiation of CCPA-induced displacement of [3H]-DPCPX from human adenosine A1 receptor expressed in CHO cell membranes at 10 uM after 90 mins relative to CCPA-treated control
Give bare numbers.

Solved entries:
{"columns": ["Smiles Representation", "fold change (FC)"],
 "data": [
  ["CC(C)(C)Cc1c(-c2cn[nH]c2)sc(N)c1C(=O)c1ccc(Cl)cc1", 1.7],
  ["COc1ccc(-c2sc(N)c(C(=O)c3ccc(Cl)cc3)c2C)cc1", 1.8],
  ["Cc1csc(N)c1C(=O)c1ccc(Cl)cc1", 1.6],
  ["COc1ccc(-c2sc(N)c(C(=O)c3cccc(C(F)(F)F)c3)c2CC(C)(C)C)cc1", 1.8],
  ["CC(C)(C)Cc1c(-c2ccccc2)sc(N)c1C(=O)c1cccc(Cl)c1", 3.1]
]}

Answer for every listed entry: what is its fold change (FC)? The entries follow.
1. CC(C)(C)Cc1c(-c2ccsc2)sc(N)c1C(=O)c1ccc(Cl)cc1
2. CC(C)(C)Cc1c(Br)sc(N)c1C(=O)c1cccc(Cl)c1
3. CC(C)(C)Cc1csc(N)c1C(=O)c1cccc(Cl)c1
4. CC(C)(C)Cc1c(-c2ccccc2)sc(N)c1C(=O)c1ccc(Cl)cc1

1. 4.7
2. 2.4
3. 1.5
4. 4.8

----------
Target: UniProt:P30542
Test: Potentiation of CCPA-induced displacement of [3H]-DPCPX from human adenosine A1 receptor expressed in CHO cell membranes at 10 uM after 90 mins relative to CCPA-treated control
Field: fold change (FC). Provide a value for each of the molecules that follow.
Give bare numbers.

{"columns": ["Smiles Representation", "fold change (FC)"],
 "data": [
  ["CC(C)(C)Cc1csc(N)c1C(=O)c1cccc(C(F)(F)F)c1", 1.7]
]}

List reported fold change (FC) for each of these molecules:
1. CC(C)Cc1csc(N)c1C(=O)c1ccc(Cl)cc1
2. Cc1ccc(C(=O)c2c(CC(C)(C)C)csc2N)cc1
3. CC(C)(C)Cc1c(-c2ccoc2)sc(N)c1C(=O)c1ccc(Cl)cc1
4. Cc1ccc(C(=O)c2c(N)sc(Br)c2CC(C)(C)C)cc1
5. CC(C)(C)c1csc(N)c1C(=O)c1ccc(Cl)cc1

1: 3.4; 2: 2; 3: 3.1; 4: 4.3; 5: 1.6

Please go through the list and note fold change (FC) for each molecule.
1. CC(C)(C)Cc1c(-c2ccccc2)sc(N)c1C(=O)c1ccc(Cl)cc1Cl
2. Cc1sc(N)c(C(=O)c2ccc(Cl)cc2)c1-c1ccccc1
3. CC(C)c1ccc(-c2sc(N)c(C(=O)c3ccc(Cl)cc3)c2CC(C)(C)C)cc1
4. CC(C)(C)Cc1c(/C=C/c2ccc(Cl)cc2)sc(N)c1C(=O)c1ccc(Cl)cc1
5. CC(C)(C)Cc1c(-c2cccc(F)c2F)sc(N)c1C(=O)c1ccc(Cl)cc1
6. CC(C)(C)Cc1c(-c2ccco2)sc(N)c1C(=O)c1ccc(Cl)cc1
7. CC(C)(C)Cc1c(-c2c(F)cccc2F)sc(N)c1C(=O)c1ccc(Cl)cc1

1. 4.4
2. 1.6
3. 4.1
4. 2.8
5. 4.9
6. 3.5
7. 2.4

----------
Please provide measured inhibition for the entries that follow.
Biological target: Adenosine receptor A2a (Homo sapiens) (UniProt P29274)
Sequence (P29274 whole entry): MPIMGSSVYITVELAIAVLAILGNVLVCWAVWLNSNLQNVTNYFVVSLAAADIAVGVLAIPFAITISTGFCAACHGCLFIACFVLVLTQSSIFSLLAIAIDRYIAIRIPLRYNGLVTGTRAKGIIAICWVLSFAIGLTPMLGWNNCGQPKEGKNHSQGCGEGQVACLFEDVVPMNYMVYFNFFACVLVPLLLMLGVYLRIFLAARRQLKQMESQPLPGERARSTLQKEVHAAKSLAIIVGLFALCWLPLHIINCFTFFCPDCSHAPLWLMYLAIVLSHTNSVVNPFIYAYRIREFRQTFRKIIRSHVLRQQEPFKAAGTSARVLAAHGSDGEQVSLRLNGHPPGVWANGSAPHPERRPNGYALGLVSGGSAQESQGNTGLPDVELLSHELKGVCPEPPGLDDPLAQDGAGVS
Assay: Displacement of [3H]-ZM241385 from human adenosine A2A receptor expressed in CHO cell membranes at 10 uM by scintillation counting analysis relative to control
One number for each entry, in %.

// known answers, use as guide
{"columns": ["Smiles Representation", "Study System", "Test Value"],
 "data": [
  ["Cc1noc(C)c1-c1sc(N)c(C(=O)c2ccc(Cl)cc2)c1CC(C)(C)C", "Adenosine receptor A2a (Homo sapiens) (UniProt P29274)", 1],
  ["CC(C)(C)Cc1csc(N)c1C(=O)c1cccc(Cl)c1", "Adenosine receptor A2a (Homo sapiens) (UniProt P29274)", 1],
  ["CC(C)(C)Cc1c(-c2c(F)cccc2F)sc(N)c1C(=O)c1ccc(Cl)cc1", "Adenosine receptor A2a (Homo sapiens) (UniProt P29274)", 2],
  ["Cc1csc(N)c1C(=O)c1ccc(Cl)cc1", "Adenosine receptor A2a (Homo sapiens) (UniProt P29274)", 1],
  ["CC(C)(C)Cc1c(-c2ccc(Cl)cc2)sc(N)c1C(=O)c1ccc(Cl)cc1", "Adenosine receptor A2a (Homo sapiens) (UniProt P29274)", 1],
  ["Cc1ccc(C(=O)c2c(CC(C)(C)C)csc2N)cc1", "Adenosine receptor A2a (Homo sapiens) (UniProt P29274)", 1],
  ["CC(C)(C)Cc1c(-c2ccco2)sc(N)c1C(=O)c1ccc(Cl)cc1", "Adenosine receptor A2a (Homo sapiens) (UniProt P29274)", 1],
  ["CC(C)(C)Cc1c(-c2cn[nH]c2)sc(N)c1C(=O)c1ccc(Cl)cc1", "Adenosine receptor A2a (Homo sapiens) (UniProt P29274)", 1],
  ["Nc1sc(-c2ccccc2)c(-c2ccccc2)c1C(=O)c1ccc(Cl)cc1", "Adenosine receptor A2a (Homo sapiens) (UniProt P29274)", 6],
  ["CC(C)(C)Cc1c(-c2ccccn2)sc(N)c1C(=O)c1ccc(Cl)cc1", "Adenosine receptor A2a (Homo sapiens) (UniProt P29274)", 1]
]}

Consider now this further compound.
I am curious: what inhibition value has been reported for CC(C)(C)c1csc(N)c1C(=O)c1ccc(Cl)cc1 ?
1

----------
Target: Adenosine receptor A1 (Homo sapiens) (UniProt P30542)
Sequence (whole entry): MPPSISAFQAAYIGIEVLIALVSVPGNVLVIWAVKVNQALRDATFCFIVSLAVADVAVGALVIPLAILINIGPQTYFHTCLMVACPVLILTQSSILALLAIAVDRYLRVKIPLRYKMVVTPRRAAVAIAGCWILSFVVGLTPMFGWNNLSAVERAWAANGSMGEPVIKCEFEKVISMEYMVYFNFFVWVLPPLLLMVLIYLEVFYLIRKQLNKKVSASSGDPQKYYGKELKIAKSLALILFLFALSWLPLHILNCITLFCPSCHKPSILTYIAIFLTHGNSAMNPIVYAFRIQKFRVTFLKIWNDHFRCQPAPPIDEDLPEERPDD
Experiment: Potentiation of CCPA-induced displacement of [3H]-DPCPX from human adenosine A1 receptor expressed in CHO cell membranes at 10 uM after 90 mins relative to CCPA-treated control
Label scheme for fold change (FC): Low: < 2; Medium: ≥ 2 and < 4; High: ≥ 4

These recorded examples may help you get a feel for the data.
{"columns": ["Smiles Representation", "Classification"],
 "data": [
  ["COc1ccc(-c2sc(N)c(C(=O)c3ccc(C)cc3)c2CC(C)(C)C)cc1", "High"],
  ["Cc1sc(N)c(C(=O)c2cccc(C(F)(F)F)c2)c1C", "Low"],
  ["CC(C)(C)Cc1c(-c2ccccn2)sc(N)c1C(=O)c1ccc(Cl)cc1", "Medium"],
  ["Nc1sc(-c2ccccc2)c(-c2ccccc2)c1C(=O)c1ccc(Cl)cc1", "Low"],
  ["COc1ccc(-c2sc(N)c(C(=O)c3ccc(Cl)c(Cl)c3)c2CC(C)(C)C)cc1", "High"]
]}

Exam item: assign CC(C)(C)Cc1c(-c2ccc3c(c2)OCO3)sc(N)c1C(=O)c1ccc(Cl)cc1 to the correct category.
High

Could you do the same for CC(C)(C)Cc1c(-c2ccccc2)sc(N)c1C(=O)c1cccc(C(F)(F)F)c1 , please?
Medium

Now give it for Cc1ccc(C(=O)c2c(N)sc(-c3ccccc3)c2CC(C)(C)C)cc1 too.
High

Another molecule to look at: Cc1c(Br)sc(N)c1C(=O)c1ccc(Cl)cc1
Low

Now try CC(C)(C)Cc1c(-c2cccnc2)sc(N)c1C(=O)c1ccc(Cl)cc1 .
Medium

Now the same for Cc1noc(C)c1-c1sc(N)c(C(=O)c2ccc(Cl)cc2)c1CC(C)(C)C
Low

Another molecule to look at: CC(C)(C)Cc1c(-c2ccc(F)cc2)sc(N)c1C(=O)c1ccc(Cl)cc1
Medium

How about COCCOc1ccc(-c2sc(N)c(C(=O)c3ccc(Cl)cc3)c2CC(C)(C)C)cc1 ?
Medium
